# tested_system: 5'-nucleotidase (Homo sapiens, UniProt P21589)
# Sequence (P21589 whole entry): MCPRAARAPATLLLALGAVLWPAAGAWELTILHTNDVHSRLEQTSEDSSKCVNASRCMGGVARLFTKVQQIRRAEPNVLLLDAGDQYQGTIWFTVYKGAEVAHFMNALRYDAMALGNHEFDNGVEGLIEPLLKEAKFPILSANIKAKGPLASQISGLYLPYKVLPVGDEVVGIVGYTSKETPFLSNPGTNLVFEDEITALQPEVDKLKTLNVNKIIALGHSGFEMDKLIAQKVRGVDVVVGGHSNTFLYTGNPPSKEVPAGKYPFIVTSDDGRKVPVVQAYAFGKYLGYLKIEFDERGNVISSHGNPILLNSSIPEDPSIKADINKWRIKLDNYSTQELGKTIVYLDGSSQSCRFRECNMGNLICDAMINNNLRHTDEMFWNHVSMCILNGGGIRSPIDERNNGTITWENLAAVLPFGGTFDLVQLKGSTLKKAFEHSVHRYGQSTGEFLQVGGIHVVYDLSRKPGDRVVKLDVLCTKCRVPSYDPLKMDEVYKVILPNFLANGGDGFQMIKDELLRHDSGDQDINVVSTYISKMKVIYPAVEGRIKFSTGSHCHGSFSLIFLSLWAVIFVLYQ
# method_notes: Inhibition of human CD73 expressed in A-375 cells
# Type: cell-based
assay_readout: pIC50
Scale: pIC50 equals -log10([C]), with [C] in mol/L.

Ask: Output pIC50 of `O=P(O)(O)COC[C@H]1O[C@@H](n2ncc3c(N4CC5(CCc6ccccc65)C4)nc(Cl)nc32)[C@H](O)[C@@H]1O`
Result: 10.29
